- Test system: M14 melanoma
- measurement notes: NCI tumour cell line growth inhibition, 48 h
property label: TGI

compound	property label	result value
COc1ccc(/[N+]([O-])=C/c2ccccc2OC(=S)S)cc1	TGI	91.5 µM
Cc1ccc(C(=O)C2CC3(CCC2(O)c2ccc(C)cc2)CC(=O)Nc2ccccc2C3=O)cc1 (stereo unspecified)	TGI	> 100 µM
ClCc1ccc(Cn2cnc3nc(Cl)nc(Cl)c32)cc1	TGI	2.83 µM
CC(C)S1=C2C(=O)CC(C)(C)CC2=Nc2ccccc21 (stereo unspecified)	TGI	> 100 µM

Answer for every listed entry: what is its TGI? The entries follow.
1. COC(=O)CCSC(=O)Nc1ccccc1Cl
2. NS(=O)(=O)c1cc2c(cc1Cl)NC(C(=O)NNC(=O)c1ccncc1)=NS2(=O)=O

["> 100 µM", "> 100 µM"]

---

Assignment: determine reported GI50 for the given compounds.
- Tested on: UO-31 renal
- measurement notes: NCI tumour cell line growth inhibition, 48 h

Examples with their reported GI50 follow.
input smiles	property label	result value
CN(C)C(=O)c1cc2cnc(Nc3ccc(N4CCNCC4)cn3)nc2n1C1CCCC1	GI50	4.56 µM
CCC(=C(c1ccc(OCCN(CC)CC)cc1)c1ccc(OCCN(CC)CC)cc1)c1ccc(Cl)cc1	GI50	0.484 µM
Cc1cccc(Cc2cnc(NC(=O)CCCOc3ccc(Cl)cc3)s2)c1	GI50	4.52 µM

Answer for every listed entry: what is its GI50? The entries follow.
1. O=C(NCc1cccnc1)c1ccc([N+](=O)[O-])o1
2. CN1CCN(Cc2ccc(NC(=O)c3cncc(C#Cc4cnc5cccnn45)c3)cc2C(F)(F)F)CC1
3. COc1cc(-c2nn(-c3cccc(NC(=O)c4cccc(C(F)(F)F)c4)c3)cc2-c2ccncc2)ccc1Cl
4. Cc1c(-c2ccc(N3CCc4cccc(C(=O)Nc5nc6ccccc6s5)c4C3)nc2C(=O)O)cnn1CC12CC3CC(CC(C3)C1)C2
5. COc1ccc(Cl)cc1Nc1nc(C(F)(F)F)ccc1C(=O)N/N=C/c1ccc(Cl)cc1
6. COc1cccc2c(Nc3ccc(C(=O)NCCN4CCNCC4)cc3)cc(-c3ccccc3)nc12

1: 2.83 µM; 2: 1.49 µM; 3: 0.969 µM; 4: 2.6 µM; 5: 1.03 µM; 6: 49.4 µM

---

- Test system: CCRF-CEM leukemia
- measurement notes: NCI tumour cell line growth inhibition, 48 h
property label: TGI (µM)
Give bare numbers, in µM.

Examples with their reported TGI follow.
input smiles	scale unit	result value
CCC(=C(c1ccc(OCCN(CC)CC)cc1)c1ccc(OCCN(CC)CC)cc1)c1ccc(Cl)cc1	µM	1.74
COc1cc(/C=C/C(=O)c2c(-c3ccc(Cl)cc3)nc3sc(C)nn23)cc(OC)c1OC	µM	87.7
N#Cc1c(N/N=C/c2c(Cl)cccc2Cl)nc(N)nc1N1CCCC1	µM	16.1

Let's switch to this compound now.
Measured TGI of CCOC(=O)c1c(SCCN(CC)CC)n(-c2ccccc2)c(=S)n(-c2ccccc2)c1=O : 3.34

---

- System: UACC-62 melanoma
- measurement notes: NCI tumour cell line growth inhibition, 48 h
property label: TGI

Examples with their reported TGI follow.
compound	assayed target	TGI
COc1ccc(Cl)cc1Nc1nc(C(F)(F)F)ccc1C(=O)N/N=C/c1ccc(Cl)cc1	UACC-62 melanoma	40.9 µM
Cc1cc(C2(c3cc(C)c(O)c4ncccc34)OC(=O)c3ccccc32)c2cccnc2c1O	UACC-62 melanoma	14.6 µM
C=CCCC1(CCP(=O)(c2ccccc2)c2ccccc2)OCCO1	UACC-62 melanoma	> 100 µM
CN1CCN(Cc2ccc(NC(=O)c3cncc(C#Cc4cnc5cccnn45)c3)cc2C(F)(F)F)CC1	UACC-62 melanoma	4.46 µM
NNC(=O)COc1nc(-c2cccs2)nc2ccc(I)cc12	UACC-62 melanoma	45.1 µM

Answer for every listed entry: what is its TGI? The entries follow.
1. O=C(Nc1ccccc1)Oc1ccccc1C1CCCCC1
2. CCOC(=O)c1c(/C=N\Nc2ccccc2)nc2ccccc2c1-c1ccccc1
3. Nc1nc(N)c2ncn(Cc3ccccc3)c2n1
4. O=C1c2sccc2C(=O)c2c(CO)csc21
5. Nc1c(/C=C/c2cc3cc(C4=NCCN4)ccc3o2)[nH]c2cc(C3=NCCN3)ccc12

1. > 100 µM
2. 76.9 µM
3. > 100 µM
4. 5.67 µM
5. > 100 µM

Answer for every listed entry: what is its TGI? The entries follow.
1. CCNC(=O)O/N=C1/C=C2CC[C@@H]3C(CC[C@@]4(C)C3CC[C@@H]4OC(=O)NCC)[C@@]2(C)CC1 (stereo partly specified)
2. CC(C)=NO.CC(C)=NO.CC(C)=NO.CC(C)=NO.[Ti]
3. COc1cccc(OC)c1/C=N\N1C(=O)c2ccccc2C1=O
4. Cc1[nH]n(C(=O)c2ccc(Cl)cc2)c(=O)c1/C=C1\C(O)=CC(=O)c2ccccc21

7.92 µM
> 100 µM
> 100 µM
> 100 µM

Answer for every listed entry: what is its TGI? The entries follow.
1. O=C(c1ccccc1)c1ccc(N2C(=O)C3C4c5ccccc5C(/C=C/C(=O)c5ccccn5)(c5ccccc54)C3C2=O)cc1 (stereo unspecified)
2. CCCCN1/C(=N/Nc2n[nH]c(=O)c3ccccc23)SCC1c1ccc(Cl)cc1 (stereo unspecified)
3. c1csc(-c2[nH]nc3c2CCc2ccccc2-3)c1

7.44 µM
20.7 µM
27.8 µM

Answer for every listed entry: what is its TGI? The entries follow.
1. CCOC(=O)c1ccc(-c2cccs2)[nH]1
2. COc1cc(CC2C(=O)OCC2Cc2ccc(OC)c(OC)c2)ccc1O (stereo unspecified)
3. Clc1ccc(N=CNc2ccc(-c3nc4ccccc4[nH]3)cc2)cc1

> 100 µM
> 100 µM
> 100 µM

Measured TGI of Nc1nc2c(c(-c3ccc(F)cc3)n1)COC/C2=C\c1ccc(F)cc1 : > 100 µM

---

- Tested on: SF-295 CNS
- measurement notes: NCI tumour cell line growth inhibition, 48 h; in the data active means GI50 below about 0.43 µM; inactive means the rest
A correct response names exactly one class from active, inactive

Solved entries (count: 3):
compound	label class
COC(=O)C(NC(=O)c1ccccc1)c1ccc(OC)c(I)c1 (centres undefined)	inactive
COc1cccc2c(Nc3ccc(C(=O)NCCN4CCNCC4)cc3)cc(-c3ccccc3)nc12	inactive
Brc1ccc2c(c1)-c1ccccc1C1=NCCN12	inactive

Look up the recorded call for COc1ccc(-c2ccc(/C=N/n3c(COc4ccc(Cl)c(C)c4)nn(CN4CCOCC4)c3=S)o2)c([N+](=O)[O-])c1 in this test.
inactive

Look up the recorded call for O=C1C(=O)c2c(ccc3ccccc23)-c2ccccc21 in this test.
inactive

---

- Tested on: RXF 393 renal
- measurement notes: NCI tumour cell line growth inhibition, 48 h
property label: TGI

Examples with their reported TGI follow.
compound	assayed target	TGI
O=C1c2sccc2C(=O)c2c(CO)csc21	RXF 393 renal	3.22 µM
CC(C)C12CCC3(CCC4C(C)(C(=O)O)CCCC4(C)C3C1)C(CN)C2 (configuration not stated)	RXF 393 renal	> 100 µM
CN1Cc2c(ccc3c2OCO3)[C@@H]2[C@H](O)Cc3cc4c(cc3[C@@H]21)OCO4	RXF 393 renal	> 26.2 µM
CCCCCNC(=O)OC1CCn2c1nc1c2C(=O)C(C)=C(N2CC2)C1=O (configuration not stated)	RXF 393 renal	1.82 µM
O=C(NCc1ccc(Cl)c(Cl)c1)c1nc2ccccc2nc1NCc1ccc(Cl)c(Cl)c1	RXF 393 renal	> 100 µM

Answer for every listed entry: what is its TGI? The entries follow.
1. CCCCSC1=N/C(=C\c2ccccc2O)C(Cl)=N1
2. CCOP(=O)(OCC)/C(C#N)=C(\C)c1ccco1

1. > 100 µM
2. > 10 µM

Answer for every listed entry: what is its TGI? The entries follow.
1. N#Cc1c(N/N=C/c2c(Cl)cccc2Cl)nc(N)nc1N1CCCC1
2. CCCSC1=N/C(=C\c2ccco2)C(=O)N1
3. CO/C(N)=C(\C#N)N=Cc1cccs1
4. CCc1c[nH]c2ncnc(N3CC[C@](N)(CNC(=O)c4ccc(F)cc4F)C3)c12
5. Oc1ccc(/C=N/Nc2nnc(N/N=C/c3ccc(O)cc3O)c3ccccc23)c(O)c1

1. > 100 µM
2. > 100 µM
3. > 100 µM
4. 8.02 µM
5. 2.4 µM

---

Assignment: determine reported TGI for the given compounds.
- Test system: MCF7 breast
- measurement notes: NCI tumour cell line growth inhibition, 48 h
Answers are plain numbers, in µM.

Examples with their reported TGI follow.
compound	property label	result value
CC(C)c1nc(Cl)c(Cl)c(Cl)n1	TGI	14.2
CCCCCCCCCCCC1=C(O)C(=O)C=C(O)C1=O	TGI	42.2
CC(=O)OC1CCC2(C)C(=CCC3C4CC(CN5CC5)C(=O)C4(C)CCC32)C1 (stereo unspecified)	TGI	2.68
CN1CCN(Cc2ccc(NC(=O)c3cncc(C#Cc4cnc5cccnn45)c3)cc2C(F)(F)F)CC1	TGI	4.77

Let's switch to this compound now.
Measured TGI of COc1cc(O)c2c(=O)c(O)c(-c3ccc(O)c(O)c3)oc2c1 : 60.7
